Test system: Streptococcus pneumoniae Group D X66
Type: cell-based
Conditions: agar dilution; 2, 5, 17, 22 median of three tests; paired values two experiments
RECORDED_METRIC: MIC Streptococcus pneumoniae Group D X66

As a guide, the following entries are already answered.
INSERT INTO assay_data (molecule, target_entity, reported_measurement) VALUES
  ('CCCCCCCCC(=O)N[C@@H](Cc1c[nH]c2ccccc12)C(=O)N[C@@H](CC(N)=O)C(=O)N[C@@H](CC(=O)O)C(=O)N[C@@H]1C(=O)NCC(=O)N[C@@H](CCCN)C(=O)N[C@@H](CC(=O)O)C(=O)N[C@H](C)C(=O)N[C@@H](CC(=O)O)C(=O)NCC(=O)N[C@H](CO)C(=O)N[C@@H]([C@H](C)CC(=O)O)C(=O)N[C@@H](CC(=O)c2ccccc2N)C(=O)O[C@@H]1C [Compound 3]', 'Streptococcus pneumoniae Group D X66', '32 mg/L'),
  ('CCCCC=CCCCCCCCC(=O)N[C@@H](Cc1c[nH]c2ccccc12)C(=O)N[C@@H](CC(N)=O)C(=O)N[C@@H](CC(=O)O)C(=O)N[C@@H]1C(=O)NCC(=O)N[C@@H](CCCN)C(=O)N[C@@H](CC(=O)O)C(=O)N[C@H](C)C(=O)N[C@@H](CC(=O)O)C(=O)NCC(=O)N[C@H](CO)C(=O)N[C@@H]([C@H](C)CC(=O)O)C(=O)N[C@@H](CC(=O)c2ccccc2N)C(=O)O[C@@H]1C [Compound 12]', 'Streptococcus pneumoniae Group D X66', '2 mg/L');

Shift focus to the following entry.
Entry C=CCCCCCCCCC(=O)N[C@@H](Cc1c[nH]c2ccccc12)C(=O)N[C@@H](CC(N)=O)C(=O)N[C@@H](CC(=O)O)C(=O)N[C@@H]1C(=O)NCC(=O)N[C@@H](CCCN)C(=O)N[C@@H](CC(=O)O)C(=O)N[C@H](C)C(=O)N[C@@H](CC(=O)O)C(=O)NCC(=O)N[C@H](CO)C(=O)N[C@@H]([C@H](C)CC(=O)O)C(=O)N[C@@H](CC(=O)c2ccccc2N)C(=O)O[C@@H]1C [Compound 11] , MIC Streptococcus pneumoniae Group D X66 reported as 1 mg/L

Where do these numbers come from? They come from patent US4537717A.
